system: HLA-A*24; experiment: MHC binding assay, UV-ligand exchange with beta2m ELISA, HLA-A*24; set-up: species or system human; settings: binding to HLA-A*24 ranged by peptide exchange yield (UV-ligand exchange, beta2m ELISA)
assay-endpoint: Peptide exchange

Sample answers from the record:
substance: 345 (EYNSDLHQFF; listed as Homo sapiens) [compound 345]
measured-on: HLA-A*24
assay-endpoint: Peptide exchange
result: +++ (50%-75% = +++)

substance: 214 (KYLMELTLI; listed as Homo sapiens) [compound 214]
measured-on: HLA-A*24
assay-endpoint: Peptide exchange
result: +++ (50%-75% = +++)

substance: 178 (NYSSAVQKF; listed as Homo sapiens) [compound 178]
measured-on: HLA-A*24
assay-endpoint: Peptide exchange
result: +++ (50%-75% = +++)

substance: 166 (FYTLPFHLI; listed as Homo sapiens) [compound 166]
measured-on: HLA-A*24
assay-endpoint: Peptide exchange
result: ++++ (>=75% = ++++)

substance: 196 (GYIRGSWQF; listed as Homo sapiens) [compound 196]
measured-on: HLA-A*24
assay-endpoint: Peptide exchange
result: ++++ (>=75% = ++++)

substance: 100 (VYIESRIGTSTSF; listed as Homo sapiens) [compound 100]
measured-on: HLA-A*24
assay-endpoint: Peptide exchange
result: +++ (50%-75% = +++)

substance: 147 (LYLAFPLAF; listed as Homo sapiens) [compound 147]
measured-on: HLA-A*24
assay-endpoint: Peptide exchange
result: +++ (50%-75% = +++)

substance: 104 (SYLTWHQQI; listed as Homo sapiens) [compound 104]
measured-on: HLA-A*24
assay-endpoint: Peptide exchange
result: ++++ (>=75% = ++++)

Task item: Fill in the blank: the reported Peptide exchange of 243 (SYLELANTL; listed as Homo sapiens) [compound 243] is ____.
Reply: +++ (50%-75% = +++)

Task item: Fill in the blank: the reported Peptide exchange of 262 (VYSSQFETI; listed as Homo sapiens) [compound 262] is ____.
Reply: ++++ (>=75% = ++++)

Task item: Fill in the blank: the reported Peptide exchange of 366 (QYLELAHSL; listed as Homo sapiens) [compound 366] is ____.
Reply: +++ (50%-75% = +++)

Task item: Fill in the blank: the reported Peptide exchange of 193 (LYLENNAQTQF; listed as Homo sapiens) [compound 193] is ____.
Reply: +++ (50%-75% = +++)

Task item: Fill in the blank: the reported Peptide exchange of 295 (SYLVIHERI; listed as Homo sapiens) [compound 295] is ____.
Reply: +++ (50%-75% = +++)

Task item: Fill in the blank: the reported Peptide exchange of 257 (IFIDNSTQPLHF; listed as Homo sapiens) [compound 257] is ____.
Reply: +++ (50%-75% = +++)

Task item: Fill in the blank: the reported Peptide exchange of 171 (NYEDHFPLL; listed as Homo sapiens) [compound 171] is ____.
Reply: +++ (50%-75% = +++)

Task item: Fill in the blank: the reported Peptide exchange of 313 (KYTHFIQSF; listed as Homo sapiens) [compound 313] is ____.
Reply: ++++ (>=75% = ++++)

Task item: Fill in the blank: the reported Peptide exchange of 97 (TYTFLKETF; listed as Homo sapiens) [compound 97] is ____.
Reply: ++++ (>=75% = ++++)

Task item: Fill in the blank: the reported Peptide exchange of 113 (IYSFHTLSF; listed as Homo sapiens) [compound 113] is ____.
Reply: +++ (50%-75% = +++)

// provenance: patent US11541107B2
